Molecular target: sRAGE binding to S100b (Homo sapiens)
Construct: extracellular domain can be isolated by proteolysis of RAGE to generate soluble RAGE (sRAGE) comprised of the V and C domains
Sequence (Q15109 23-342 limits assumed): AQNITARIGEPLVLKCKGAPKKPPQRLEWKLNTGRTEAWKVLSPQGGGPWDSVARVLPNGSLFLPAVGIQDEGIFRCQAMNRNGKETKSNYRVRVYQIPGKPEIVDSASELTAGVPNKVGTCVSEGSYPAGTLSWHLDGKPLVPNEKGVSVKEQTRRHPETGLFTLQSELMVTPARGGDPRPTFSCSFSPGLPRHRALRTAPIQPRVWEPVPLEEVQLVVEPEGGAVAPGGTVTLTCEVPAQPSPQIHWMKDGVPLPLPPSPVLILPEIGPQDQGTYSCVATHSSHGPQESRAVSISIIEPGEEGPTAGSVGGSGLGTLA
Assay: RAGE binding assay (ELISA), S100b as the RAGE ligand
Details: compounds tested in hydrochloride salt form, concentration at which 50% signal has been inhibited
Counter-ions that a name gives are not always drawn.
Labelling field: enter fulfilled if recorded IC50 is less than 2 µM. Enter not fulfilled if it equals or exceeds that cut-off.

Worked set:
{"columns": ["compound", "tested_system", "label_value"],
 "data": [
  ["CCCCc1nnc(C(=O)NC2CCN(C)CC2)cc1-c1ccc(OCc2ccccc2)cc1 [Example 80, dihydrochloride]", "sRAGE binding to S100b (Homo sapiens)", "fulfilled"],
  ["CCCCc1nnc(OC2CCN(C)CC2)cc1-c1ccc(OC2CCCCC2)c(-c2ncco2)c1 [Example 65, dihydrochloride salt]", "sRAGE binding to S100b (Homo sapiens)", "not fulfilled"],
  ["CCCCc1nnc(O[C@H]2CCN(C)C[C@H]2F)cc1-c1ccc(OC2CCCCC2)cc1 (racemic) [Example 42, dihydrochloride]", "sRAGE binding to S100b (Homo sapiens)", "not fulfilled"]
]}

Quick check: IC50 of CCCCc1nnc(OC2CCN(C)CC2)cc1-c1ccc(OC2CCCCC2)c(C#N)c1 [Example 67, dihydrochloride] under 2 µM?
fulfilled

For CCCCc1nnc(C(=O)N[C@H]2CN3CCC2CC3)cc1-c1ccc(OC2CCCCC2)cc1 [Example 86, dihydrochloride] , is the recorded IC50 below the cut-off of 2 µM?
fulfilled
